target: OATP8 (OATP1B3, SLCO1B3) (Homo sapiens, UniProt Q9NPD5); assay: TP_TRANSPORTER: inhibition of estrone-3-sulfate uptake (Estrone-3-sulfate: 9.2 nM) by Troglitazone sulfate at a concentration of 10uM in OATP8-expressing Xenopus oocytes; assay type: functional, cell-based, Oocyte; settings: xenopus laevis, Xenopus laevis oocytes expressing OATP8, probe estrone-3-sulfate
Sequence (Q9NPD5 whole entry): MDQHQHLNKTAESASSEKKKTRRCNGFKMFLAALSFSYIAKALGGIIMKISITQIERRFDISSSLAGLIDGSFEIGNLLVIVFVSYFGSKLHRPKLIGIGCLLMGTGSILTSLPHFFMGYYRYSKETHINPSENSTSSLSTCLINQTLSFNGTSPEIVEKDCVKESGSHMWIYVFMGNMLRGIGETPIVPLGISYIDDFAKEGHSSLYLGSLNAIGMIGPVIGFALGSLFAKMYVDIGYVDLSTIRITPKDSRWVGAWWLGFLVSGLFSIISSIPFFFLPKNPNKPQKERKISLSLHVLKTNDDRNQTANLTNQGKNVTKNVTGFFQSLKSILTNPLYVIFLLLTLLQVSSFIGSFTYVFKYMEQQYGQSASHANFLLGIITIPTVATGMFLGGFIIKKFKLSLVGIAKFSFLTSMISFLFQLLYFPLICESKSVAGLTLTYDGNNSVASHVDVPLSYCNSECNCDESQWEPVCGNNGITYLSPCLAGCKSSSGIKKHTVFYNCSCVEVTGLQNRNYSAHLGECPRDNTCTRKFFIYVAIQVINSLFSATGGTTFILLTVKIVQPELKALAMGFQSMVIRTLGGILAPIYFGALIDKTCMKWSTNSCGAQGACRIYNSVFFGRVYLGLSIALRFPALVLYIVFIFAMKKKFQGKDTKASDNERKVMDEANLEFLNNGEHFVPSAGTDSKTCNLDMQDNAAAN
Structures can show the parent of a compound that is named as a salt.
parameter: inhibition at 10 µM (%)
Form entry: value (%) — number only.

Ask: Quick one: inhibition at 10 µM for Cc1c(C)c2c(c(C)c1OS(=O)(=O)O)CCC(C)(COc1ccc(CC3SC(=O)NC3=O)cc1)O2 (stereo unspecified) [TROGLITAZONE SULFATE] ?
Reply: 20

* * *

biological target: OATP-C (OATP1B1, SLCO1B1) (Homo sapiens); assay: TP_TRANSPORTER: inhibition of estrone-3-sulfate uptake (Estrone-3-sulfate: 9.2 nM) by Troglitazone at a concentration of 10uM in OATP-C-expressing Xenopus oocytes; type: functional, cell-based, Oocyte; settings: xenopus laevis, probe estrone-3-sulfate
parameter: inhibition at 10 µM (%)
Form entry: value (%) — number only.

Ask: Quick one: inhibition at 10 µM for Cc1c(C)c2c(c(C)c1O)CCC(C)(COc1ccc(CC3SC(=O)NC3=O)cc1)O2 (stereo unspecified) ?
Reply: 35

* * *

Molecular target: OATP-C (OATP1B1, SLCO1B1) (Homo sapiens, UniProt Q9Y6L6)
Sequence (Q9Y6L6 whole entry): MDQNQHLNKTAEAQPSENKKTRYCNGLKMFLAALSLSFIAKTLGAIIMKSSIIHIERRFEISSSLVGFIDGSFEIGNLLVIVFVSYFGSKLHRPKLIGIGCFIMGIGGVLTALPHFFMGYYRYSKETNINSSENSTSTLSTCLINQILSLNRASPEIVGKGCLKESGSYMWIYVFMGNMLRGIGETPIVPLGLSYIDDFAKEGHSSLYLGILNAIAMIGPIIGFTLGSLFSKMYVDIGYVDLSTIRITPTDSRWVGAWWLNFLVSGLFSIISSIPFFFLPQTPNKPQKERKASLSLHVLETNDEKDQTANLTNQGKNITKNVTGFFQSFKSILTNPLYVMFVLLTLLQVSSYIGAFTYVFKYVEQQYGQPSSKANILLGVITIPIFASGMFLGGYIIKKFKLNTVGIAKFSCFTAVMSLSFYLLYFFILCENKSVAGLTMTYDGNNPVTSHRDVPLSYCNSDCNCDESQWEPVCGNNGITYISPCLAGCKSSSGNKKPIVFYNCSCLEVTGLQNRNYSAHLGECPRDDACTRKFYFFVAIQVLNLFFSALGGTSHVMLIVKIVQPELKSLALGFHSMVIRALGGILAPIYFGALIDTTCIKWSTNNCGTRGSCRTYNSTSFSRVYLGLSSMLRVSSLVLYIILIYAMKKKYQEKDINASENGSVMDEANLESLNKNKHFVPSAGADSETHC
Experiment: TP_TRANSPORTER: inhibition of estrone-3-sulfate uptake (Estrone-3-sulfate: 9.2 nM) by Troglitazone glucuronide at a concentration of 10uM in OATP-C-expressing Xenopus oocytes
Type: functional, cell-based, Oocyte
Conditions: xenopus laevis, probe estrone-3-sulfate
parameter: inhibition at 10 µM (%)
Form entry: value (%) — number only.

Ask: Quick one: inhibition at 10 µM for Cc1c(C)c2c(c(C)c1O[C@@H]1O[C@H](C(=O)O)[C@@H](O)[C@H](O)[C@H]1O)CCC(C)(COc1ccc(CC3SC(=O)NC3=O)cc1)O2 (stereo partly specified) [TROGLITAZONE GLUCURONIDE] ?
Reply: 30

* * *

molecular target: OATP-C (OATP1B1, SLCO1B1) (Homo sapiens, UniProt Q9Y6L6); assay: TP_TRANSPORTER: inhibition of estrone-3-sulfate uptake (Estrone-3-sulfate: 9.2 nM) by Pioglitazone at a concentration of 10uM in OATP-C-expressing Xenopus oocytes; type: functional, cell-based, Oocyte; settings: xenopus laevis, probe estrone-3-sulfate
parameter: inhibition at 10 µM

Ask: Quick one: inhibition at 10 µM for CCc1ccc(CCOc2ccc(CC3SC(=O)NC3=O)cc2)nc1 (stereo unspecified) ?
Reply: 70%

* * *

biological target: OATP-C (OATP1B1, SLCO1B1) (Homo sapiens); test: TP_TRANSPORTER: inhibition of estrone-3-sulfate uptake (Estrone-3-sulfate: 9.2 nM) by Quinone Form at a concentration of 10uM in OATP-C-expressing Xenopus oocytes; assay type: functional, cell-based, Oocyte; conditions: xenopus laevis, probe estrone-3-sulfate
parameter: inhibition at 10 µM (%)
Form entry: value (%) — number only.

Ask: Under OATP-C (OATP1B1, SLCO1B1) (Homo sapiens): inhibition at 10 µM value of CC1=CC(=O)C(C)=C(CCC(C)(C)COc2ccc(CC3SC(=O)NC3=O)cc2)C1=O (stereo unspecified) [QUINONE FORM] ?
Reply: 20
